Numbers sourced from PubChem BioAssay (NCATS).

test: qHTS of pediatric cancer cell lines to identify multiple opportunities for drug repurposing: Confirmatory screen for RD cells (AID 1347124); details: RD rhabdomyosarcoma cell viability; series mostly up to 45.9 µM;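 also: cells exposed to compound for 48 h before viability readout; nearly all actives have a fitted effect of over 65% in size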
Inconclusive results are not listed. Calls of active or inactive are those of the source. Calls follow the shape of the dose curve; as a rule, active = well fitted cell-killing curve with a large enough effect; inconclusive = small, poorly fitted or top-dose-only effect, or effect the other way; inactive = no such curve, though single readings can be large or run the other way.
Classes to choose from: true (1) = active, false (0) = inactive

Query: Hi, sorry to bother you, what did the test record for "Cc1nc2cnc3ccc(C#Cc4cccnc4)cc3c2n1-c1ccc(C(C)(C)C#N)cc1" ?
Result: true (1)

Query: Hi, sorry to bother you, what did the test record for "Cc1c(C)n(Cc2ccc(-c3ccccc3C(=O)O)cc2)c2ccc(C(=O)N[C@@H](C)c3ccc([N+](=O)[O-])cc3)cc12" ?
Result: false (0)

Query: Hi, sorry to bother you, what did the test record for "Nc1cc(C(F)(F)F)c(-c2cc(N3CCOCC3)nc(N3CCOCC3)n2)cn1" ?
Result: true (1)
